- Measured on: HLA-B*07:02
- Method: IEDB peptide-MHC binding, purified MHC/direct/fluorescence; filed as Kd, often an IC50 or EC50 that approximates it; bounds were set here for any values at or beyond the usual limits of such assays
- Assay setup: source organism: Francisella tularensis subsp. tularensis
pKd: −log10 of the molar value.
Readout name: pKd

Value lookup for pKd; key = "RYSNFAWYF"
≤ 4.70

###

- Measured on: HLA-A*31:01
- Method: IEDB peptide-MHC binding, purified MHC/competitive/radioactivity; filed as Kd, often an IC50 or EC50 that approximates it; bounds were set here for any values at or beyond the usual limits of such assays
- Assay setup: source organism: Vaccinia virus Copenhagen
pKd: −log10 of the molar value.
Label rule, in plain words: pKd of 6 and up is T, under 6 is F.

# bool: pKd of "QLMYALEPRK" >= 6
F

# bool: pKd of "LTILDDNLYK" >= 6
F

# bool: pKd of "IFAFIDFSK" >= 6
T

# bool: pKd of "SSLDQTHIK" >= 6
T
